- Test system: Avena fatua (AVEFA)
- experiment: Test 1 glasshouse assay, post-emergence herbicidal activity
- Type: in vivo
- testConditions: 312 h, post-emergence (Example 1B Table 2), 250 g/ha, after 13 days, read-out: Percentage phytotoxicity AVEFA
measuredProperty: pest or weed control at 250 g/ha (%)
Answers are plain numbers, in %.

Report pest or weed control at 250 g/ha for C#CCC1CC(=O)C(c2c(F)cc(-c3ccc(Cl)cc3)cc2Cl)C1=O (centres unmarked)
90

Report pest or weed control at 250 g/ha for CC#CCC1CC(=O)C(c2c(C)cc(C)cc2C)C1=O (centres unmarked)
50

Report pest or weed control at 250 g/ha for C#CCC1CC(=O)C(c2c(F)cc(-c3ccc(Cl)cc3)cc2OC)C1=O (centres unmarked)
100

Report pest or weed control at 250 g/ha for C#Cc1cc(C)c(C2C(=O)CC(CC#CC)C2=O)c(C)c1 (centres unmarked)
90

With those in mind, consider the next compound.
Report pest or weed control at 250 g/ha for C#CCC1CC(=O)C(c2c(Cl)cc(-c3ccc(F)c(F)c3)cc2OC)C1=O (centres unmarked)
100

* * *

- Test system: Avena fatua (AVEFA)
- experiment: Test 1 glasshouse assay, post-emergence herbicidal activity
- Format: in vivo
- testConditions: 312 h, post-emergence (Example 1B Table 2), 62.5 g/ha, after 13 days, read-out: Percentage phytotoxicity AVEFA
Assign labels as follows, please: Condition met for pest or weed control at 62.5 g/ha below 90%; Condition not met for pest or weed control at 62.5 g/ha equal to or exceeding 90%.

Solved entries (count: 5):
Determine if C#Cc1cc(C)c(C2C(=O)CC(CC#CC)C2=O)c(C)c1 (stereo not shown) shows pest or weed control at 62.5 g/ha strictly lower than 90%.
Condition met

Determine if C#CCC1CC(=O)C(c2c(Cl)cc(-c3ccc(F)c(F)c3)cc2OC)C1=O (stereo not shown) shows pest or weed control at 62.5 g/ha strictly lower than 90%.
Condition not met

Determine if C#CCC1CC(=O)C(c2c(C)cc(-c3ncc(Cl)cn3)cc2C)C1=O (stereo not shown) shows pest or weed control at 62.5 g/ha strictly lower than 90%.
Condition not met

Determine if C#CCC1CC(=O)C(c2c(Cl)cccc2Cl)C1=O (stereo not shown) shows pest or weed control at 62.5 g/ha strictly lower than 90%.
Condition met

Determine if C#CCC1CC(=O)C(c2c(Cl)cc(-c3ccc(Cl)cn3)cc2OC)C1=O (stereo not shown) shows pest or weed control at 62.5 g/ha strictly lower than 90%.
Condition not met

Next:
Determine if C#CCC1CC(=O)C(c2c(Cl)cc(-c3ccc(F)cc3F)cc2OC)C1=O (stereo not shown) shows pest or weed control at 62.5 g/ha strictly lower than 90%.
Condition met

Determine if C#CCC1CC(=O)C(c2c(CC)cc(C)cc2CC)C1=O (stereo not shown) shows pest or weed control at 62.5 g/ha strictly lower than 90%.
Condition not met

Determine if C#CCC1CC(=O)C(c2c(C)cc(-c3ccc(Cl)cn3)cc2C)C1=O (stereo not shown) shows pest or weed control at 62.5 g/ha strictly lower than 90%.
Condition met

Determine if CC#CCC1CC(=O)C(c2c(C)cc(C)cc2C)C1=O (stereo not shown) shows pest or weed control at 62.5 g/ha strictly lower than 90%.
Condition met

* * *

Exercise: for every item that follows, state its recorded pest or weed control at 125 g/ha.
- Tested on: Lolium perenne (LOLPE)
- experiment: Test 2 glasshouse assay (IF50 formulation, X-77), post-emergence herbicidal activity
- Type: in vivo
- testConditions: 360 h, application rate 125 g/ha, 15 DAA, visual score, read-out: Post-emergence herbicidal activity (percentage phytotoxicity) LOLPE
Give the value; after it, write the unit.

Previously resolved entries follow.
Fill in: pest or weed control at 125 g/ha on Lolium perenne (LOLPE), entry C#CCC1CC(=O)C(c2c(F)cc(-c3ccc(F)c(F)c3)cc2OC)C1=O (stereo not shown)
50%

Fill in: pest or weed control at 125 g/ha on Lolium perenne (LOLPE), entry C#CCC1C(=O)C(c2c(C)cc(C)cc2C)C(=O)C1CC#C (stereo not shown)
80%

Fill in: pest or weed control at 125 g/ha on Lolium perenne (LOLPE), entry C#CCC1CC(=O)C(c2c(F)cc(-c3ccc(Cl)cc3)cc2OC)C1=O (stereo not shown)
20%

Fill in: pest or weed control at 125 g/ha on Lolium perenne (LOLPE), entry C#CCC1CC(=O)C(c2c(CC)cc(C)cc2CC)C1=O (stereo not shown)
100%

Fill in: pest or weed control at 125 g/ha on Lolium perenne (LOLPE), entry C#CCC1CC(=O)C(c2c(Cl)cc(-c3ccc(F)c(F)c3)cc2OC)C1=O (stereo not shown)
80%

Fill in: pest or weed control at 125 g/ha on Lolium perenne (LOLPE), entry C#CCC1CC(=O)C(c2c(Cl)cc(-c3ccc(F)cc3F)cc2OC)C1=O (stereo not shown)
90%

Fill in: pest or weed control at 125 g/ha on Lolium perenne (LOLPE), entry C#CCC1CC(=O)C(c2c(F)cc(-c3ccc(Cl)cc3)cc2Cl)C1=O (stereo not shown)
30%

Fill in: pest or weed control at 125 g/ha on Lolium perenne (LOLPE), entry C#CCC1CC(OC(C)=O)=C(c2c(C)cc(-c3ccc(F)cc3)cc2C)C1=O (stereo not shown)
100%

I'm hoping you can list pest or weed control at 125 g/ha for every compound here, please.
1. C#CCC1CC(=O)C(c2c(C)cc(C)cc2C)C1=O (stereo not shown)
2. C#CCC1CC(=O)C(c2c(C)cc(-c3ccc(F)cc3)cc2C)C1=O (stereo not shown)

1. 90%
2. 80%

* * *

Exercise: for every item that follows, state its recorded pest or weed control at 250 g/ha.
- System: Setaria faberi (SETFA)
- experiment: Test 2 glasshouse assay (IF50 formulation, X-77), post-emergence herbicidal activity
- Format: in vivo
- testConditions: 360 h, application rate 250 g/ha, 15 DAA, visual score, read-out: Post-emergence herbicidal activity (percentage phytotoxicity) SETFA
One number for each entry, in %.

Previously resolved entries follow.
Fill in: pest or weed control at 250 g/ha on Setaria faberi (SETFA), entry C#CCC1CC(=O)C(c2c(Cl)cc(-c3ccc(Cl)cn3)cc2OC)C1=O (stereo not shown)
100

Fill in: pest or weed control at 250 g/ha on Setaria faberi (SETFA), entry C#CCC1CC(=O)C(c2c(C)cc(-c3ccc(Cl)cn3)cc2C)C1=O (stereo not shown)
100

Fill in: pest or weed control at 250 g/ha on Setaria faberi (SETFA), entry C#CCC1CC(=O)C(c2c(Cl)cc(-c3ccc(F)cc3)cc2OC)C1=O (stereo not shown)
100

Fill in: pest or weed control at 250 g/ha on Setaria faberi (SETFA), entry C#CCC1CC(=O)C(c2c(C)cc(-c3ncc(Cl)cc3F)cc2C)C1=O (stereo not shown)
100

Fill in: pest or weed control at 250 g/ha on Setaria faberi (SETFA), entry C#CCC1CC(=O)C(c2c(F)cc(-c3ccc(Cl)cn3)cc2Cl)C1=O (stereo not shown)
100

Fill in: pest or weed control at 250 g/ha on Setaria faberi (SETFA), entry C#CCC1CC(=O)C(c2c(Cl)cc(-c3ccc(Cl)cc3)cc2OC)C1=O (stereo not shown)
100

Fill in: pest or weed control at 250 g/ha on Setaria faberi (SETFA), entry C#CCC1CC(=O)C(c2cc(-c3ccc(Cl)cc3Cl)ccc2C)C1=O (stereo not shown)
30

Fill in: pest or weed control at 250 g/ha on Setaria faberi (SETFA), entry C#CCC1CC(=O)C(c2c(F)cc(-c3ccc(Cl)cc3)cc2Cl)C1=O (stereo not shown)
100

Fill in: pest or weed control at 250 g/ha on Setaria faberi (SETFA), entry C#CCC1CC(=O)C(c2cc(-c3ncc(Cl)cc3F)ccc2C)C1=O (stereo not shown)
70

Next:
Fill in: pest or weed control at 250 g/ha on Setaria faberi (SETFA), entry C#CCC1CC(=O)C(c2cc(-c3ncc(Cl)cn3)ccc2C)C1=O (stereo not shown)
60

* * *

- Tested on: Setaria faberi (SETFA)
- experiment: Test 2 glasshouse assay (IF50 formulation, X-77), post-emergence herbicidal activity
- Format: in vivo
- testConditions: 360 h, application rate 125 g/ha, 15 DAA, visual score, read-out: Post-emergence herbicidal activity (percentage phytotoxicity) SETFA
measuredProperty: pest or weed control at 125 g/ha (%)
Answers are plain numbers, in %.

Previously resolved entries follow.
Report pest or weed control at 125 g/ha for C#CCC1CC(=O)C(c2c(CC)cc(C)cc2CC)C1=O (stereo not drawn)
100

Report pest or weed control at 125 g/ha for C#CCC1CC(=O)C(c2c(F)cc(-c3ccc(F)c(F)c3)cc2OC)C1=O (stereo not drawn)
100

With those in mind, consider the next compound.
Report pest or weed control at 125 g/ha for C#CCC1CC(=O)C(c2c(C)cc(-c3ccc(F)cc3)cc2C)C1=O (stereo not drawn)
100

Attribution: patent US10375956B2
